- system: CYP 2C9 (Homo sapiens, UniProt P11712)
- Construct: purchased Invitrogen P2861
- Sequence (P11712 whole entry): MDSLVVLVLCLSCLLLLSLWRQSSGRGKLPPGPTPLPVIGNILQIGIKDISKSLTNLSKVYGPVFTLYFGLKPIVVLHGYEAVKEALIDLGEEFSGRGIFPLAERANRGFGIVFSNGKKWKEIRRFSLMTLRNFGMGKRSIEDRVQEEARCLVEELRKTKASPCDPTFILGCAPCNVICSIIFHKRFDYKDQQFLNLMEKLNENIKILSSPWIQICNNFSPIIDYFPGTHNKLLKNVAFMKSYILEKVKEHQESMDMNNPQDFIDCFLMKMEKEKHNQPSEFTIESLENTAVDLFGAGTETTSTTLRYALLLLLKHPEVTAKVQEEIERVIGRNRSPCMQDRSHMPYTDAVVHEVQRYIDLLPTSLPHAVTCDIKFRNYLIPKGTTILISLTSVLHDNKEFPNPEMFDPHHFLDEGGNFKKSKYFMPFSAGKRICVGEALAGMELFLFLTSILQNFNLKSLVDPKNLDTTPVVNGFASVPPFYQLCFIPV
- testSummary: CYP (cytochrome P450)-suppressing effect, Invitrogen Vivid kit
- Type: in vitro ADME
- Experimental: To evaluate the CYP (cytochrome P450)-suppressing activity of the compounds prepared in the examples of the invention, the following experiment was performed. […] The test results were calculated by the following formula: (1−(fluorescence value of the test material/fluorescence value of the vehicle))×100%.
reportedMetric: CYP(10 μL, %) 2C9
Quick note: give the figure in %, leave out the unit.

Entry C[C@H](NC(=O)c1ccc2c(c1)OCCN2Cc1ccc(-c2ccccc2C(=O)O)cc1)c1ccc(C#N)cc1 : reported CYP(10 μL, %) 2C9 = ?
80.68

Can you handle C[C@H](NC(=O)c1ccc2c(c1)OCCN2Cc1ccc(-c2ccccc2C(=O)O)cc1)c1ccc([N+](=O)[O-])cc1 next?
80.25

Can you handle C[C@H](NC(=O)c1ccc2c(c1)CCCN2Cc1ccc(-c2ccccc2C(N)=O)cc1F)c1ccc2ccccc2c1 next?
63.87

Can you handle C[C@H](NC(=O)c1ccc2c(c1)CCCN2Cc1cccc(-c2ccccc2C(N)=O)c1F)c1ccc([N+](=O)[O-])cc1 next?
52.84

Can you handle C[C@H](NC(=O)c1ccc2c(c1)CCCN2Cc1ccc(-c2ccccc2C(=O)O)cc1)c1ccc(C#N)cc1 next?
64.28

Can you handle C[C@H](NC(=O)c1ccc2c(c1)CCCN2Cc1ccc(-c2ccccc2C(=O)[O-])cc1)c1ccc(C#N)cc1.[Na+] next?
58.87

Can you handle C[C@H](NC(=O)c1ccc2c(c1)OCCN2Cc1ccc(-c2ccccc2C(N)=O)cc1)c1ccc2ccccc2c1 next?
57.63

Can you handle C[C@H](NC(=O)c1ccc2c(c1)CCCN2Cc1ccc(-c2ccccc2C(N)=O)cc1)c1ccc(F)cc1 next?
51.03

Can you handle C[C@H](NC(=O)c1ccc2c(c1)OCCN2Cc1ccc(-c2ccccc2C(=O)O)cc1)c1ccccc1 next?
57.47

Can you handle C[C@H](NC(=O)c1ccc2c(c1)CCCN2Cc1cccc(-c2ccccc2C(N)=O)c1)c1ccc([N+](=O)[O-])cc1 next?
59.36

###

- system: UniProtKB Q12809
- Sequence (Q12809 whole entry): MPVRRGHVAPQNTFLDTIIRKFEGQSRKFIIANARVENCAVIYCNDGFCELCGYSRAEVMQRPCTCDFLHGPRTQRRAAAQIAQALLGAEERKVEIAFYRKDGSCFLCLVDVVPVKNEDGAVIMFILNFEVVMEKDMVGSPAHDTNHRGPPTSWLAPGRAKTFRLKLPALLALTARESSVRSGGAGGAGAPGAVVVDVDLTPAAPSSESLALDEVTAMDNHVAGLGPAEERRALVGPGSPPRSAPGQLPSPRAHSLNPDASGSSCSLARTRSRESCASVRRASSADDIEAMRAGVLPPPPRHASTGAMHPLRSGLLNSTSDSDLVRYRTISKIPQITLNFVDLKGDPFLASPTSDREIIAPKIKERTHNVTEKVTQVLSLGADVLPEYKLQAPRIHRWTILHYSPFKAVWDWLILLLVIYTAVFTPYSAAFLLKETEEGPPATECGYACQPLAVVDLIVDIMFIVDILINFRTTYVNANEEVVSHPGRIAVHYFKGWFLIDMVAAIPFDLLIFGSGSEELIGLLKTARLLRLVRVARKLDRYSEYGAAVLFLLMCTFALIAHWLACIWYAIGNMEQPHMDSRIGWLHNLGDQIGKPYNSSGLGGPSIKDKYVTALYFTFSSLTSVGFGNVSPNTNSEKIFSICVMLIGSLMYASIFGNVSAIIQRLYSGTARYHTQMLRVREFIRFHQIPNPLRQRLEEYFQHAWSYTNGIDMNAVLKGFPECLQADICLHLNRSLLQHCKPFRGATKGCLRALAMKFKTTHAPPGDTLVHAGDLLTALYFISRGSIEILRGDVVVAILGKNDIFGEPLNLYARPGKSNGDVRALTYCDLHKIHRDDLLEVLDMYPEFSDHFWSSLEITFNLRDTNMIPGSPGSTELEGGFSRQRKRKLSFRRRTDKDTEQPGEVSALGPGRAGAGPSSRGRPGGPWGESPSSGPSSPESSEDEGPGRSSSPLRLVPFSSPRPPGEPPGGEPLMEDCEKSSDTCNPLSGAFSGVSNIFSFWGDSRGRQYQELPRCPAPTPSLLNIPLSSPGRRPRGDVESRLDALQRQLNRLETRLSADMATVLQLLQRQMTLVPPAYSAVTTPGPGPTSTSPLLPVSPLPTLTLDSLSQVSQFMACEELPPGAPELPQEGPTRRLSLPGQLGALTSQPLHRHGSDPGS
- testSummary: Evaluation of cardiotoxicity, patch-clamp on HEK293 cells expressing HERG channel
- setupConditions: HERG peak tail current
Kindly supply the reported pIC50 values for the records listed here.
Please treat pIC50 as minus the base-10 logarithm of the molar concentration.

Entry C[C@H](NC(=O)c1ccc2c(c1)CCCN2Cc1ccccc1-c1ccc(C(=O)O)cc1)c1ccc([N+](=O)[O-])cc1 : reported pIC50 = ?
4.13

Can you handle C[C@H](NC(=O)c1ccc2c(c1)CCCN2Cc1ccccc1-c1ccc(C(=O)O)cc1)c1ccc2ccccc2c1 next?
4.26

Can you handle Cc1ccc([C@H](C)NC(=O)c2ccc3c(c2)CCCN3Cc2ccc(-c3ccccc3C(=O)[O-])cc2)cc1F.[Na+] next?
4.14

Can you handle C[C@H](NC(=O)c1ccc2c(c1)CCCN2Cc1ccccc1-c1ccc(C(=O)O)cc1)c1ccc(C#N)cc1 next?
4.37

###

- system: CYP 3A4 (Homo sapiens, UniProt P08684)
- Construct: purchased BD GENTEST 459500
- Sequence (P08684 whole entry): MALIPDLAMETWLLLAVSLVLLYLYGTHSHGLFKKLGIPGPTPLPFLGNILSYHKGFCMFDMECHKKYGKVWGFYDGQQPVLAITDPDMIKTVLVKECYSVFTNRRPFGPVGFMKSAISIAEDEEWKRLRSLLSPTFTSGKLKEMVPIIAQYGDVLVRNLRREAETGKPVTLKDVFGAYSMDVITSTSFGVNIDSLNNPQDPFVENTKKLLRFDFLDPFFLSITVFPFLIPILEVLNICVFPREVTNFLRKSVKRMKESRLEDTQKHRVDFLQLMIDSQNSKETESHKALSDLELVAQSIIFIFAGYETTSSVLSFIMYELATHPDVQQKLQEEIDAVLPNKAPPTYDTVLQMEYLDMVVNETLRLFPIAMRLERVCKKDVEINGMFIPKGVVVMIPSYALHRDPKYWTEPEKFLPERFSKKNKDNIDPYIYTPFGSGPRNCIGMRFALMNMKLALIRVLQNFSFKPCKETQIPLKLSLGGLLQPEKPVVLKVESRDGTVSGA
- testSummary: CYP (cytochrome P450)-suppressing effect, BD GENTEST kit
- Format: in vitro ADME
reportedMetric: CYP(10 μL, %) 3A4
Quick note: give the figure in %, leave out the unit.

Entry C[C@H](NC(=O)c1ccc2c(c1)CCCN2Cc1cccc(-c2ccccc2C(N)=O)c1F)c1ccc([N+](=O)[O-])cc1 : reported CYP(10 μL, %) 3A4 = ?
55.88

Can you handle C[C@H](NC(=O)c1ccc2c(c1)CCCN2Cc1ccc(-c2ccccc2C(N)=O)cc1)c1ccc2ccccc2c1 next?
70.42

Can you handle C[C@H](NC(=O)c1ccc2c(c1)OCCN2Cc1ccc(-c2ccccc2C(=O)O)cc1)c1ccc([N+](=O)[O-])cc1 next?
70.64

Can you handle C[C@H](NC(=O)c1ccc2c(c1)OCCN2Cc1ccc(-c2ccccc2C(=O)O)cc1)c1ccc(C#N)cc1 next?
81.98

Can you handle Cc1ccc([C@H](C)NC(=O)c2ccc3c(c2)CCCN3Cc2ccc(-c3ccccc3C(=O)[O-])cc2)cc1F.[Na+] next?
54.62

Can you handle C[C@H](NC(=O)c1ccc2c(c1)CCCN2Cc1ccc(-c2ccccc2C(=O)[O-])cc1)c1ccc(C#N)cc1.[Na+] next?
59.17

Can you handle C[C@H](NC(=O)c1ccc2c(c1)CCCN2Cc1cc(-c2ccccc2C(N)=O)ccc1F)c1ccc([N+](=O)[O-])cc1 next?
60.95

Can you handle C[C@H](NC(=O)c1ccc2c(c1)CCCN2Cc1cccc(-c2ccccc2C(=O)O)c1)c1ccc(C#N)cc1 next?
71.21

Can you handle C[C@H](NC(=O)c1ccc2c(c1)CCCN2Cc1ccc(-c2ccccc2C(N)=O)cc1)c1ccc(F)cc1 next?
58.18

Can you handle C[C@H](NC(=O)c1ccc2c(c1)CCCN2Cc1ccc(-c2ccccc2C(=O)O)cc1)c1ccc(C#N)cc1 next?
71.24

###

- system: PPARG (peroxisome proliferator activated receptor-gamma), GST-PPARG-LBD (Homo sapiens, UniProt P37231)
- Construct: 15 μL of 5 nM GST-PPARG-LBD and 5 nM Tb-GST-antibody were added; purchased Invitrogen PV4894
- testSummary: LanthaScreen TR-FRET PPARG Competitive Binding Assay
- Set-up: key: “+” indicates the degree of the binding activity, and as the number of “+” increases, the binding activity is stronger; ++: “+” indicates the degree of the binding activity, and as the number of “+” increases, the binding activity is stronger; +++: “+” indicates the degree of the binding activity, and as the number of “+” increases, the binding activity is stronger; ++++: “+” indicates the degree of the binding activity, and as the number of “+” increases, the binding activity is stronger
- setupConditions: degree of binding activity
reportedMetric: Binding assay (1 μLM)

Example compounds with recorded Binding assay (1 μLM):
{"smilesText": "C[C@H](NC(=O)c1ccc2c(c1)CCCN2Cc1ccc(-c2ccccc2C(N)=O)cc1)c1cccc(C(F)(F)F)c1", "assayValue": "+++"}
{"smilesText": "C[C@H](NC(=O)c1ccc2c(c1)CCCN2Cc1cc(-c2ccccc2C(N)=O)ccc1F)c1ccc2ccccc2c1", "assayValue": "++++"}
{"smilesText": "C[C@H](NC(=O)c1ccc2c(c1)CCCN2Cc1ccc(-c2ccccc2C(=O)O)cc1)c1ccc(Br)cc1", "assayValue": "++++"}
{"smilesText": "C[C@H](NC(=O)c1ccc2c(c1)CCCN2Cc1ccc(-c2ccccc2C(=O)O)cc1)c1c(F)cccc1F", "assayValue": "+++"}
{"smilesText": "C[C@H](NC(=O)c1ccc2c(c1)CCCN2Cc1cccc(-c2ccccc2C(=O)O)c1)c1ccc2ccccc2c1", "assayValue": "++++"}

Entry O=C(NCc1ccccn1)c1ccc2c(c1)OCCN2Cc1ccc(-c2ccccc2C(=O)O)cc1 : reported Binding assay (1 μLM) = ?
+

Can you handle C[C@H](NC(=O)c1ccc2c(c1)CCCN2Cc1ccc(-c2ccccc2C(N)=O)cc1)c1ccc(F)cc1 next?
+++

###

- system: PPARG (peroxisome proliferator activated receptor-gamma), GST-PPARG-LBD (Homo sapiens, UniProt P37231)
- Construct: 15 μL of 5 nM GST-PPARG-LBD and 5 nM Tb-GST-antibody were added; purchased Invitrogen PV4894
- Sequence (P37231 238-503 limits assumed): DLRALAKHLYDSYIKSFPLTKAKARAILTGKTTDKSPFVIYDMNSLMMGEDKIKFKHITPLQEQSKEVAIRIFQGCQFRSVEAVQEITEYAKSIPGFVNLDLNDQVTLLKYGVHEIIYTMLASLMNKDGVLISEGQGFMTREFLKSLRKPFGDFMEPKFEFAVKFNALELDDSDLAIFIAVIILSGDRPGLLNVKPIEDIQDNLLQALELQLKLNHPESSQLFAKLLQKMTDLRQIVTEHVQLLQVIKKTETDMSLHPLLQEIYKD
- testSummary: LanthaScreen TR-FRET PPARG Competitive Binding Assay
- Design: key: “+” indicates the degree of the binding activity, and as the number of “+” increases, the binding activity is stronger; ++: “+” indicates the degree of the binding activity, and as the number of “+” increases, the binding activity is stronger; +++: “+” indicates the degree of the binding activity, and as the number of “+” increases, the binding activity is stronger; ++++: “+” indicates the degree of the binding activity, and as the number of “+” increases, the binding activity is stronger
- setupConditions: degree of binding activity
reportedMetric: Binding assay (1 μLM)

{"smilesText": "Cc1cc(F)ccc1[C@H](C)NC(=O)c1ccc2c(c1)OCCN2Cc1ccc(-c2ccccc2C(=O)O)cc1", "Binding assay (1 μLM)": "++"}
{"smilesText": "C[C@H](NC(=O)c1ccc2c(c1)OCCN2Cc1ccc(-c2ccccc2C(=O)O)cc1)c1ccc(C(F)(F)F)cc1", "Binding assay (1 μLM)": "+++"}
{"smilesText": "C[C@@H](NC(=O)c1ccc2c(c1)OCCN2Cc1ccc(-c2ccccc2C(=O)O)cc1)c1ccc(C#N)cc1", "Binding assay (1 μLM)": "+++"}
{"smilesText": "C[C@H](NC(=O)c1ccc2c(c1)CCCN2Cc1ccc(-c2ccccc2C(=O)O)cc1F)c1ccc2ccccc2c1", "Binding assay (1 μLM)": "++++"}
{"smilesText": "COc1cccc(CNC(=O)c2ccc3c(c2)OCCN3Cc2ccc(-c3ccccc3C(=O)O)cc2)c1", "Binding assay (1 μLM)": "+"}

Entry C[C@H](NC(=O)c1ccc2c(c1)OCCN2Cc1ccc(-c2ccccc2C(=O)O)cc1)c1ccc(SC(F)(F)F)cc1 : reported Binding assay (1 μLM) = ?
+++
